assay: mn = molality of the nth substance listed, in mol/kg; details: 308.15 K; 101 kPa; Liquid; Sing-around technique in a fixed-path interferometer; m1 = 0.1
property: speed of sound (m/s)

O=P([O-])([O-])O.[Na+].[Na+] [disodium hydrogen phosphate] + O :: 1537
O=P([O-])(O)O.[Na+] [sodium dihydrogen phosphate] + O :: 1529.8
O=P([O-])([O-])[O-].[Na+].[Na+].[Na+] [trisodium phosphate] + O :: 1541.8
O=P([O-])(O)O.[K+] [monopotassium phosphate] + O :: 1528.8
O=P(O)(O)O [phosphoric acid] + O :: 1519.7

----------
experiment: refractive index (Na D-line) (dimensionless); mn = molality of the nth substance listed, in mol/kg; conditions: 303.15 K; 101 kPa; Liquid; Standard Abbe refractometry; m1 = 0.5
property: refractive index

O=P([O-])([O-])[O-].[Na+].[Na+].[Na+] [trisodium phosphate] + O :: 1.3506
O=P([O-])(O)O.[Li+] [lithium dihydrogen phosphate] + O :: 1.339
O=P(O)(O)O [phosphoric acid] + O :: 1.336
O=P([O-])([O-])[O-].[K+].[K+].[K+] [tripotassium phosphate] + O :: 1.351
O=P([O-])(O)O.[Na+] [sodium dihydrogen phosphate] + O :: 1.3412
O=P([O-])([O-])O.[Na+].[Na+] [disodium hydrogen phosphate] + O :: 1.3456
O=P([O-])([O-])O.[K+].[K+] [dipotassium hydrogen phosphate] + O :: 1.3453
O=P([O-])(O)O.[K+] [monopotassium phosphate] + O :: 1.3397

----------
assay: mn = molality of the nth substance listed, in mol/kg; details: 298.15 K; 101 kPa; Liquid; Sing-around technique in a fixed-path interferometer; m1 = 0.3
property: speed of sound (m/s)

O=P(O)(O)O [phosphoric acid] + O :: 1498.3
O=P([O-])([O-])O.[K+].[K+] [dipotassium hydrogen phosphate] + O :: 1542.9
O=P([O-])([O-])[O-].[Na+].[Na+].[Na+] [trisodium phosphate] + O :: 1563.1
O=P([O-])(O)O.[Na+] [sodium dihydrogen phosphate] + O :: 1527.2
O=P([O-])([O-])O.[Na+].[Na+] [disodium hydrogen phosphate] + O :: 1549.5
O=P([O-])([O-])[O-].[K+].[K+].[K+] [tripotassium phosphate] + O :: 1559.7
O=P([O-])(O)O.[K+] [monopotassium phosphate] + O :: 1524.5
O=P([O-])(O)O.[Li+] [lithium dihydrogen phosphate] + O :: 1525.5

----------
assay: mn = molality of the nth substance listed, in mol/kg; conditions: 298.15 K; 101 kPa; Liquid; Vibrating tube method; m1 = 0.1
property: mass density (kg/m3)

O=P([O-])([O-])O.[K+].[K+] [dipotassium hydrogen phosphate] + O :: 1016.33
O=P([O-])([O-])[O-].[K+].[K+].[K+] [tripotassium phosphate] + O :: 1017.14
O=P([O-])(O)O.[K+] [monopotassium phosphate] + O :: 1007.01
O=P([O-])([O-])[O-].[Na+].[Na+].[Na+] [trisodium phosphate] + O :: 1015.18
O=P([O-])(O)O.[Li+] [lithium dihydrogen phosphate] + O :: 1004.55
O=P(O)(O)O [phosphoric acid] + O :: 1002.05
O=P([O-])([O-])O.[Na+].[Na+] [disodium hydrogen phosphate] + O :: 1010.86
O=P([O-])(O)O.[Na+] [sodium dihydrogen phosphate] + O :: 1006.23
